A collection of compounds and their measured TGI
System: HOP-92 NSCLC
protocolSummary: NCI tumour cell line growth inhibition, 48 h
quantityMeasured: TGI

| compound | assayedSystem | quantityMeasured | result |
| --- | --- | --- | --- |
| CCOC(=O)CCC(NC(=O)c1ccc(OCc2ccc3nc(OC)c(OC)nc3c2)cc1)C(=O)OCC (stereo not given) | HOP-92 NSCLC | TGI | > 100 µM |
| O=Cc1c[nH]c2ccc(-c3csc4ccccc34)cc12 | HOP-92 NSCLC | TGI | 84.7 µM |
| CC12OC3(C(O)C1O)C(C(=O)O[C@H]3CO[Si](C)(C)C(C)(C)C)C2S(=O)(=O)c1ccccc1 (stereo not given in full) | HOP-92 NSCLC | TGI | > 100 µM |
| O=c1c2cc(Br)ccc2[nH]c(=S)n1-c1ccccc1 | HOP-92 NSCLC | TGI | > 100 µM |
| Oc1[nH]c2ccc(Cl)cc2c1/C=c1/ccc2c(c1)N=C(c1ccc(C(F)(F)F)cc1)N=2 | HOP-92 NSCLC | TGI | 4.35 µM |

====

Tested on: RXF 393 renal
protocolSummary: NCI tumour cell line growth inhibition, 48 h

| compound | assayedSystem | qualifierSymbol | TGI / µM |
| --- | --- | --- | --- |
| CCOc1ccc(/C=N\N2C(=O)c3ccccc3C2=O)cc1 | RXF 393 renal | > | 100 |
| Oc1ccc(NCc2cc(O)ccc2O)cc1 | RXF 393 renal | = | 28.8 |
| CC(=O)N1N=C(c2ccc3ccccc3c2O)CC1c1ccc(Cl)cc1Cl (centres undefined) | RXF 393 renal | > | 100 |
| Cc1ccc(-c2c3c(N)nc(-c4ccncc4)nc3nc3c2c(C)nn3-c2ccccc2)cc1 | RXF 393 renal | = | 33 |
| C[C@]12CC[C@H]3[C@@H](CC=C4C[C@@H](O)CC[C@@]43C)[C@@H]1C[C@H](N1CCOCC1)[C@@H]2O | RXF 393 renal | > | 100 |
| O=CNNC(=O)CSc1nc2ccc(I)cc2c(=O)n1Cc1ccccc1 | RXF 393 renal | = | 81.4 |
| CC(N)CN.CC(N)CN.[Cl-].[O]=[Os+2]=[O] (centres undefined) | RXF 393 renal | > | 100 |
| O=C(O)CC1C(=O)OC2C3COC(=O)c4cc(O)c(O)c(O)c4-c4c(cc(O)c(O)c4O)C(=O)OC2C(OC(=O)c2cc(O)c(O)c4c2C1C(O)C(=O)O4)C(OC(=O)c1cc(O)c(O)c(O)c1)O3 (centres undefined) | RXF 393 renal | > | 100 |
| O=C(NCCSSCCNC(=O)/C(Cc1ccc(O)c(Br)c1)=N/O)/C(Cc1ccc(O)c(Br)c1)=N/O | RXF 393 renal | = | 2 |

====

System: UACC-62 melanoma
protocolSummary: NCI tumour cell line growth inhibition, 48 h
Items are presented alongside their recorded TGI.

| compound | assayedSystem | TGI |
| --- | --- | --- |
| Clc1ccc(/C=C/c2nc(-c3ccc(Cl)cc3)cn3c2nc2ccccc23)cc1 | UACC-62 melanoma | > 100 µM |
| Cc1ccc([S+](c2ccccc2)c2cc(C)ccc2C)cc1 (stereo not given) | UACC-62 melanoma | > 100 µM |
| C[N+](C)(C)CC(=O)N/N=C/c1oc(-c2cccc([N+](=O)[O-])c2)c(-c2cccc([N+](=O)[O-])c2)c1[N+](=O)[O-] | UACC-62 melanoma | > 100 µM |
| OC1=CN=C(C2CC2)Oc2ccccc21 | UACC-62 melanoma | > 100 µM |
| COC[C@@H]1Cc2cc(OC)c3c(c2[C@H](c2ccc(OC)c(OC)c2)[C@H]1COC)OCO3 | UACC-62 melanoma | > 100 µM |
| COc1cc(-c2ccccc2)c(OC)cc1CCl | UACC-62 melanoma | > 100 µM |
| Cc1ccc(NC(=O)CC(=O)n2nc(-c3ccccc3)c(N=Nc3ccccc3C(=O)O)c2-c2ccccc2)cc1 | UACC-62 melanoma | > 100 µM |
| N#Cc1ccc(N2Cc3cc(Cl)ccc3OC3=C2C(=O)N(Cc2ccc(F)cc2)C3=O)cc1 | UACC-62 melanoma | 1.13 µM |
| CCc1cccc(C(C)C)c1NC1=C([n+]2ccc(C)cc2)C(=O)c2ccccc2C1=O | UACC-62 melanoma | 4.22 µM |
| O=C1C=CC(=O)c2c1cc1ccccc1c2O | UACC-62 melanoma | 20 µM |

Data provenance: PubChem BioAssay (NCI)
